System: RBL-2H3 cells
experimental.details: Inhibition of serotonin liberation from IgE-sensitized RBL-2H3 cells after antigen stimulation
Assay type: cell-based, rat
conditions: [3H]-serotonin release, IgE-sensitized RBL-2H3 cells, antigen stimulation; read-out: IC50 (μM) in serotonin liberation from RBL-2H3 cells
From the text: IgE-sensitized RBL-2H3 cells (i.e., a cell line originating in rat cells) release and produce not only histamine and serotonin but also cytokines such as TNF α and prostaglandins which are inflammatory mediators after stimulation with IgE sepecific antibody. In this experimental system, inhibitory effects on various mediators release were examined by using serotonin as an indication. […]
recorded.metric: IC50

Report IC50, nothing else, for this molecule: CO/N=c1\c2ccccc2n(CCCN)c2c(C)c(C)ccc12 [Example 208]
3 µM
